subject_of_test: T1, SUPT6H SH2 domain (human, UniProt Q7KZ85 1325-1431)
T1 construct: SUPT6H, human; source: bacterial expression, purified
measurement_notes: peptide or protein array; SH2/PTB proteins spotted on aldehyde slides, rhodamine peptide titrated in buffer B (20 mM HEPES, 100 mM KCl, 0.1% Tween-20, 5 mM DTT, pH 7.8), 1 h at room temperature; replicate assays
assay_conditions: both partners purified
Non-standard residues stand in square brackets, D forms with d. No end group written: not given here. pY = N[C@@H](Cc1ccc(OP(=O)(O)O)cc1)C(=O)O; Rhodamine = not defined here
observable: Kd (µM)

{"columns": ["binder", "observable", "measurement_unit", "test_value"],
 "data": [
  ["Rhodamine-PLQR[pY]SEDPTVPD (reading uncertain) [ErbB2 pY1112 phosphopeptide, rhodamine-labelled, for protein microarrays]", "Kd", "µM", 1.04]
]}
